Reported normalized growth values follow for various compounds
- protocolNotes: chemical genetic growth profiling, strain panel (AID 1159580);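 also: tested at 20 µM; growth read once vehicle control cultures reached saturation at 30 °C; 1 = growth at the plate median or of vehicle wells; lower values mean less growth of the strain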
- conditionParameters: S. cerevisiae deletion strains, growth OD, locus YEL003W, strain gim4, stronger effect = lower value
About 2,000 (36%) of roughly 5,500 compounds were called active. Not shown: some 18% with an inconclusive outcome. The list shows a part of the results. Where a SMILES comes first, the peptide text is derived from it. Bridges are numbered along the chain shown (N, C = ends). [ ]: non-standard residue; d: D form. The star is where a group is joined. ξ: configuration not given here. ξDab(CH2SO3H) = NC(CCNCS(=O)(=O)O)C(=O)O; Heptanoyl(6-Me) = CC(C)CCCCC(=O)*; Dab = NCC[CH](N)C(=O)O
// return a plain number; no unit text

Record excerpt, results attached:
CC(C)CCCC1(C)C=Cc2c(O)c3c(c(CCC(C)C)c2O1)OC12C(CC4CC1C(C)(C)OC2(CCC(C)C(=O)O)C4O)C3=O (centres undefined) = 0.982
C[C@@H]1CC[C@]2(C(=O)O)CC[C@]3(C)C(=CCC4[C@@]5(C)CC[C@H](O)C(C)(C)C5CC[C@]43C)C2[C@H]1C (some centres undefined) = 0.998
C/C=C(/C)C(=O)O[C@@H]1[C@H](OC(C)=O)[C@@]2(CO)C(CC1(C)C)C1=CCC3[C@@]4(C)CC[C@H](O[C@@H]5O[C@H](C(=O)O)[C@@H](O[C@@H]6O[C@H](CO)[C@@H](O)[C@H](O)[C@H]6O)[C@H](O)[C@H]5O[C@@H]5O[C@H](CO)[C@@H](O)[C@H](O)[C@H]5O)[C@](C)(CO)C4CC[C@@]3(C)[C@]1(C)C[C@H]2O (some centres undefined) = 0.992
CC(=O)/C=C\[C@@H]1[C@@]2(C)CCCC(C)(C)C2CC[C@@]1(C)O (some centres undefined) = 0.976
CC(=O)O[C@@H]1CC[C@@]2(C)C(CC[C@]3(C)C2CC=C2C4CC(C)(C)CC[C@]4(C(=O)O)CC[C@]23C)C1(C)C (some centres undefined) = 0.976
COc1cc(C(=O)NCCCCCC(=O)O)cc(OC)c1OC = 0.98

Lookup: Fill in normalized growth for record CCC(C)C1NC(=O)C(CCNCS(=O)(=O)O)NC(=O)C(NC(=O)C(CCNCS(=O)(=O)O)NC(=O)C(NC(=O)C(CCNCS(=O)(=O)O)NC(=O)CCCCC(C)C)C(C)O)CCNC(=O)C(C(C)O)NC(=O)C(CCNCS(=O)(=O)O)NC(=O)C(CCNCS(=O)(=O)O)NC(=O)C(C(C)CC)NC1=O (centres undefined) ({Heptanoyl(6-Me)}-[ξDab(CH2SO3H)]T[ξDab(CH2SO3H)][Dab][ξDab(CH2SO3H)]II[ξDab(CH2SO3H)][ξDab(CH2SO3H)]T; lactam 4-C; configuration not given here)
Found: 0.996

Lookup: Please report normalized growth for the following compound: CC(=O)NC(C(=O)O)C(C)(C)SN=O (centres undefined)
Found: 0.988

Lookup: Consider the compound CC1(C)CCC2(C(=O)O)CCC3(C)C(=CCC4C5(C)CCC(O)C(C)(C)C5C(O)CC43C)C2C1 (centres undefined) . State its measured normalized growth.
Found: 1.01

Lookup: Entry N=C(N)c1ccc(OCCCCCOc2ccc(C(=N)N)cc2)cc1 needs its normalized growth filled in; supply it.
Found: 0.929

Lookup: Item O=C(O)CC(O)(CC(=O)O)C(=O)O : provide normalized growth
Found: 0.998

Lookup: # return recorded normalized growth for input NC(N)=N/N=C/c1c(Cl)cccc1Cl
Found: 0.963

Lookup: Return normalized growth (reported value) for this compound: Cc1ccc(N=CN(C)C=Nc2ccc(C)cc2C)c(C)c1
Found: 0.957

Lookup: Input CCCCCCCCCCCCCCC(C(=O)O)C(O)(CC(=O)OC)C(=O)O (centres undefined) , output reported normalized growth.
Found: 0.98

Data provenance is PubChem BioAssay AID1159580.
